- Test system: CAKI-1 renal
- RUN_DESCRIPTION: NCI tumour cell line growth inhibition, 48 h
MEASURED_QUANTITY: TGI

CCOC(=O)[C@H](Cc1ccc(O)cc1)N=C1[C@H]2CCC[C@]1(O)[C@@](C)([N+](=O)[O-])C2 : > 100 µM
COc1nc(N)c(N=CC(OC(C)=O)C(OC(C)=O)C(COC(C)=O)OC(C)=O)c(=O)n1C (stereo not drawn) : > 100 µM
O=P1(Oc2ccccc2)C(c2ccccc2)C(c2ccccc2)=NN1c1ccccc1 (stereo not drawn) : 65 µM
N#Cc1c(N)[nH]c2ccc(Sc3ccccc3)cc12 : 9.27 µM
CCN1C(=O)N(CC)C2C1NN=c1s/c(=C\c3ccccc3Br)c(=O)n12 (stereo not drawn) : 26.3 µM

Short answer for O=C(CC(=O)Nc1ccccc1)N/N=C/c1cc(N=Nc2ccc(Br)cc2)ccc1O : TGI was > 10 µM

# TGI (compound: COc1ccc(CSc2ccccc2Cn2cccc2)cc1OC ) is > 100 µM

# TGI of COc1ccc2oc(=N)c(C(=O)Nc3ccccn3)cc2c1 = > 100 µM

Reported TGI ( CC(C)[C@@H]1ON1C(C)c1ccccc1 (stereo partly drawn) ) = 34.7 µM

# TGI of CCCCCn1sc(=O)n(Cc2ccc(CNC(=O)OCc3ccc4cccc(O)c4n3)cc2)c1=O = 2.17 µM

Record COc1cc([C@@H]2c3cc(O)c(OC)cc3C=C(C(N)=O)[C@H]2C(N)=O)ccc1O . Reported TGI: > 100 µM

###

# GI50 annotations
- System: NCI-H23 lung
- RUN_DESCRIPTION: NCI tumour cell line growth inhibition, 48 h

Recorded results for 7 compounds are shown here.
O=C(N/N=C/c1cc(Cl)cc(Cl)c1O)c1ccccc1O : 2690 nM
CN1CCN(CC(O)COc2c(Br)c(Br)c(Br)c3c2OC(C)(C)C3)CC1 (stereo not drawn) : 14000 nM
CCN1C(=O)N(CC)C2C1NN=c1s/c(=C3\C(=O)N(CCc4ccccc4)c4ccccc43)c(=O)n12 (stereo not drawn) : 794 nM
O=c1[nH]cnc2c(C3NC(CO)C(O)C3O)c[nH]c12 (stereo not drawn) : > 100000 nM
CCCCCn1sc(=O)n(Cc2ccc(CNC(=O)OCc3ccc4cccc(O)c4n3)cc2)c1=O : 1670 nM
C#CCOc1cccc(Nc2ncnc3c(NC(=O)CCl)cccc23)c1 : 18300 nM
Cc1c(C2=C(c3cn(C)c4ccccc34)C(=O)NC2=O)c2ccccc2n1C : 13200 nM

Attention now turns to another entry.
For reference, reported GI50 for O=C(Nc1cccc(Nc2ncc(Br)c(NCCc3cnc[nH]3)n2)c1)N1CCCC1 stands at 2980 nM

###

Below, each entry is listed with its recorded TGI.
- System: SK-OV-3 ovarian
- RUN_DESCRIPTION: NCI tumour cell line growth inhibition, 48 h
Where a SMILES comes first, the peptide text is derived from it. Bridges are numbered along the chain shown (N, C = ends). Roman numbers before positions name the chains, in order. [ ]: non-standard residue; d: D form. The star is where a group is joined. Quinoxaline2carbonyl = O=C(c1cnc2ccccc2n1)*; NMeV = CN[CH](C(=O)O)C(C)C; NMeC = CN[CH](CS)C(=O)O

Examples with answers:
CN1CCN(CC(O)COc2c(Br)c(Br)c(Br)c3c2OC(C)(C)C3)CC1 (configuration not stated) : 38.4 µM
COC(=O)C1=C(C)N2[C@H](C(=O)O)CO[C@@]2(C)[C@H](C(=O)OC)[C@H]1c1cccc([N+](=O)[O-])c1 : > 100 µM
CC1NC(=O)C(NC(=O)c2cnc3ccccc3n2)COC(=O)C(C(C)C)N(C)C(=O)C2CSSCC(C(=O)N(C)C(C(C)C)C(=O)OCC(NC(=O)c3cnc4ccccc4n3)C(=O)NC(C)C(=O)N2C)N(C)C1=O (configuration not stated) (I: Quinoxaline2carbonyl-SA[NMeC][NMeV] / II: Quinoxaline2carbonyl-SA[NMeC][NMeV]; ester I:1-II:C, I:C-II:1; disulfide I:3-II:3; configuration not given here) : 6.87 µM

Input O=C(O)COc1c(Cl)cc(Cl)c2cccnc12 . Output TGI: > 100 µM

Record CC(C)=C/C=C1/CS(=O)(=O)C=C1C . Reported TGI: > 100 µM

The reported TGI of the molecule O=C(CC(=O)Nc1ccccc1)N/N=C/c1cc(N=Nc2ccc(Br)cc2)ccc1O was > 10 µM

Value of TGI reported for the molecule N/N=C1\CC(=O)NC(=O)N1 is > 100 µM

###

- Tested on: NCI-H226 lung
- RUN_DESCRIPTION: NCI tumour cell line growth inhibition, 48 h
MEASURED_QUANTITY: TGI

Past entries and their recorded results:
O=C(Oc1cccnc1)c1ccsc1Nc1ccnc(C(F)(F)F)c1 : > 100 µM
Cc1nc(-c2ccc(N=Cc3ccc(N(CCOS(C)(=O)=O)CCOS(C)(=O)=O)cc3C)cc2)cs1 : 28.3 µM
BrCc1ccc(CBr)cc1 : 15.6 µM
O=c1[nH]cnc2c(C3NC(CO)C(O)C3O)c[nH]c12 (centres undefined) : > 100 µM
Cc1ccc(C2=Nc3ccccc3SC(c3cccc([N+](=O)[O-])c3)C2)cc1 (centres undefined) : > 100 µM

Briefly, TGI measured for C[C@@H]1O[C@@H](OC[C@H]2O[C@@H](OCCc3ccc(O)c(O)c3)[C@H](O)[C@@H](O)[C@@H]2OC(=O)/C=C/c2ccc(O)c(O)c2)[C@H](O)[C@H](O)[C@H]1O : > 100 µM

###

- Test system: PC-3 prostate
- RUN_DESCRIPTION: NCI tumour cell line growth inhibition, 48 h
Where a SMILES comes first, the peptide text is derived from it. [ ]: non-standard residue; d: D form. The star is where a group is joined. mTyr = N[CH](Cc1cccc(O)c1)C(=O)O; Cbz = O=C(OCc1ccccc1)*; OBn = c1ccc(CO*)cc1
MEASURED_QUANTITY: TGI

Just so you know, measured TGI for Cc1cccc(NC(=O)c2sc3nc4c(cc3c2N)CN(Cc2ccccc2)CC4)c1C came out at > 50 µM

// field: TGI; key: CCOC(=O)c1ccc(C(=O)C(C(C)=O)C(=O)OC(C)(C)C)[nH]1 (stereo not drawn) ; value = > 100 µM

# molecule CN(CCCCCl)P(=O)(OCCS(=O)(=O)CC(NC(=O)CCC(N)C(=O)O)C(=O)NC(C(=O)O)c1ccccc1)OCC1OC(n2cc(F)c(=O)[nH]c2=O)CC1O (stereo not drawn) ; its TGI = > 36.1 µM

So for CN1CCN(CC(O)COc2c(Br)c(Br)c(Br)c3c2OC(C)(C)C3)CC1 (stereo not drawn) , the logged TGI turned out to be 21.1 µM

Entry under test: CC1OC(OC2C(OC(=O)[C@@H]3CC(C)(C)C[C@H]4C5=CC[C@@H]6[C@@]7(C)C[C@H](O)[C@H](OC8OC(CO)C(O)C(O)C8O)[C@@](C)(CO)[C@@H]7[C@H](O)C[C@@]6(C)[C@]5(C)CC[C@@]34C)OCC(O)C2O)C(O)C(O)C1O (stereo partly drawn) . Its TGI was > 7.5 µM

COC(=O)C(Cc1cccc(O)c1)NC(=O)C(CC(=O)OCc1ccccc1)NC(=O)OCc1ccccc1 (stereo not drawn) (Cbz-Asp(OBn)-[mTyr]-OMe; configuration not given here) has a reported TGI of > 100 µM

GET /value?item= CCC1(COC(NC(=O)c2ccccc2)(C(F)(F)F)C(F)(F)F)COC1 &field=TGI returns > 100 µM

So, Cn1cc(-c2nonc2-c2cn(C)c3ccccc23)c2ccccc21 ? Its TGI was > 100 µM

The value of TGI measured for the molecule CC(=O)OCC1OC(n2c(=O)[nH]c(=O)c3sccc32)C(Br)C1OC(C)=O (stereo not drawn) turned out to be > 100 µM

// field: TGI; key: Cc1ccc(/C(O)=C/C(=O)C(=O)NN=C(c2ccccc2)c2ccccc2)cc1 ; value = > 100 µM

Please fill in: TGI reported for COc1ccc(-n2cnc3c(NC(CCSC)C(=O)O)ncnc32)cc1 (stereo not drawn) = > 100 µM

For this molecule ( COc1nc(N)c(N=CC(OC(C)=O)C(OC(C)=O)C(COC(C)=O)OC(C)=O)c(=O)n1C (stereo not drawn) ), measured TGI is > 100 µM

So, Brc1c(C#CCC2CCCCC2)ccc(C#CCC2CCCCC2)c1Br ? Its TGI was > 100 µM

Value of measured TGI for the entry CCN(Cc1ccc(Cl)s1)c1ccc(CO)c(Cl)c1 : 49.4 µM

// field: TGI; key: C[CH2][Pb]([CH2]C)([CH2]C)[O]C(=O)c1ccc2ccccc2n1 ; value = > 10 µM

TGI recorded for this molecule, Cc1ccc(S(=O)(=O)NCCSCCSCCNS(=O)(=O)c2ccc(C)cc2)cc1 , is > 100 µM

Please fill in: TGI reported for O=C(Oc1cccnc1)c1ccsc1Nc1ccnc(C(F)(F)F)c1 = 73.2 µM

Looking up COc1cc2c(c(OC)c1OC)-c1ccc(SC)c(=O)cc1[C@@H](NC1OC(CO)C(O)C(O)C1O)CC2 (stereo partly drawn) , I found its TGI recorded as > 100 µM
